# target.or.test.system: Nuclear receptor subfamily 1 group I member 2 (Homo sapiens, UniProt O75469)
# Sequence (O75469 whole entry): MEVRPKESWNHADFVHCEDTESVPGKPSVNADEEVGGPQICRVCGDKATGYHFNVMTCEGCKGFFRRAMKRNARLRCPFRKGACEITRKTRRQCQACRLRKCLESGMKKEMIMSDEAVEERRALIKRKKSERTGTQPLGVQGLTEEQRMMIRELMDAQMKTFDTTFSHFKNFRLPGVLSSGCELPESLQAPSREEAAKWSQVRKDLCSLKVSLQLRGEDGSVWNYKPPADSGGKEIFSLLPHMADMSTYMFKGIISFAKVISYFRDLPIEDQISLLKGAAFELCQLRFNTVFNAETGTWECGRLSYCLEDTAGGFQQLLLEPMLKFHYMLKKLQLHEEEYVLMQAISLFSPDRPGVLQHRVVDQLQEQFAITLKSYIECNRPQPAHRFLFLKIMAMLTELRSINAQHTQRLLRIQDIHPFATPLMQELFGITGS
# procedure.details: Agonist activity at PXR (unknown origin) by AlphaScreen assay
pEC50: −log10 of the molar value.
value.type: pEC50

molecule	pEC50
c1cc([C@@H]2Nc3c(ccc4c3CCCC4)[C@@H]3OCC[C@H]23)cs1 (racemic)	5.46
CC(C)(C)OC(=O)N1CC[C@@H]2[C@@H](c3ccsc3)Nc3c(ccc4c3CCCC4)[C@@H]21 (racemic)	5.43

A. CC(C)(C)OC(=O)N1CC[C@H]2[C@@H](c3ccsc3)Nc3c(ccc4c3CCCC4)[C@H]21
B. CC(C)(C)OC(=O)N1CC[C@@H]2[C@H](c3ccsc3)Nc3c(ccc4c3CCCC4)[C@@H]21 (racemic)
C. CC(C)(C)OC(=O)N1CC[C@@H]2[C@H](c3ccco3)Nc3c(ccc4c3CCCC4)[C@@H]21 (racemic)
# desc sort on pEC50 across 3 molecules # output: labels, in the requested order
C, A, B
